This collection of values is drawn from ChEMBL document CHEMBL5357084.

test system: BEAS-2B; test: Cytotoxicity against human BEAS-2B cells assessed as inhibition of cell growth at 50 uM measured after 48 hrs by MTT assay relative to control; type: functional
quantity.name: Cell growth relative to control (%)

[[record]]
smiles_notation = "COC(=O)[C@@]1([C@H](O)[C@@H](C)CC(=O)O)CC(=O)c2c(ccc(-c3ccc4c(c3O)C(=O)C[C@@](C(=O)OC)([C@H](O)[C@@H](C)CC(=O)O)O4)c2O)O1"
target_under_test = "BEAS-2B"
quantity_name = "Cell growth relative to control"
reported_result = 105.5

[[record]]
smiles_notation = "COC(=O)[C@@]12Oc3ccc(-c4ccc5c(c4O)C(=O)C[C@](C(=O)OC)([C@H]4OC(=O)C[C@@H]4C)O5)c(O)c3C(=O)C1=C(O)C[C@H](C)[C@H]2O"
target_under_test = "BEAS-2B"
quantity_name = "Cell growth relative to control"
reported_result = 109.9

[[record]]
smiles_notation = "COC(=O)C[C@H](C)[C@@H](O)[C@]1(C(=O)OC)CC(=O)c2c(O)ccc(-c3ccc4c(c3O)C(=O)C[C@](C(=O)OC)([C@@]3(O)OC(=O)C[C@@H]3C)O4)c2O1"
target_under_test = "BEAS-2B"
quantity_name = "Cell growth relative to control"
reported_result = 171

[[record]]
smiles_notation = "COC(=O)C[C@H](C)[C@@H](O)[C@]1(C(=O)OC)CC(=O)c2c(ccc(-c3ccc4c(c3O)C(=O)C[C@](C(=O)OC)([C@@]3(O)OC(=O)C[C@@H]3C)O4)c2O)O1"
target_under_test = "BEAS-2B"
quantity_name = "Cell growth relative to control"
reported_result = 171.6

[[record]]
smiles_notation = "COC(=O)[C@@]12Oc3c(-c4ccc5c(c4O)C(=O)C[C@](C(=O)OC)([C@H]4OC(=O)C[C@@H]4C)O5)ccc(O)c3C(=O)C1=C(O)C[C@H](C)[C@H]2O"
target_under_test = "BEAS-2B"
quantity_name = "Cell growth relative to control"
reported_result = 179.2

[[record]]
smiles_notation = "COC(=O)[C@@]12Oc3cc(C)c(-c4ccc5c(c4O)C(=O)C4=C(O)C[C@H](C)[C@H](O)[C@]4(C(=O)OC)O5)c(O)c3C(=O)C1=C(O)CC[C@H]2O"
target_under_test = "BEAS-2B"
quantity_name = "Cell growth relative to control"
reported_result = 155.8

[[record]]
smiles_notation = "COC(=O)[C@@]12Oc3c(-c4ccc5c(c4O)C(=O)C[C@](C(=O)OC)([C@@H]4OC(=O)C[C@@H]4C)O5)ccc(O)c3C(=O)C1=C(O)C[C@H](C)[C@H]2O"
target_under_test = "BEAS-2B"
quantity_name = "Cell growth relative to control"
reported_result = 96.8

[[record]]
smiles_notation = "COC(=O)[C@]1([C@H]2OC(=O)C[C@@H]2C)CC(=O)c2c(ccc(-c3ccc4c(c3O)C(=O)C[C@@](C(=O)OC)([C@H](O)[C@@H](C)CC(=O)O)O4)c2O)O1"
target_under_test = "BEAS-2B"
quantity_name = "Cell growth relative to control"
reported_result = 158.7

[[record]]
smiles_notation = "COC(=O)[C@]12Oc3ccc(-c4ccc5c(c4O)C(=O)C4=C(O)C[C@@H](C)[C@H](O)[C@@]4(C(=O)OC)O5)c(O)c3C(=O)C1=C(O)C[C@@H](C)[C@@H]2O"
target_under_test = "BEAS-2B"
quantity_name = "Cell growth relative to control"
reported_result = 107.3

[[record]]
smiles_notation = "COC(=O)[C@@]12Oc3c(c(O)cc(C)c3-c3ccc4c(c3O)C(=O)C3=C(O)C[C@H](C)[C@H](O)[C@]3(C(=O)OC)O4)C(=O)C1=C(O)CC[C@H]2O"
target_under_test = "BEAS-2B"
quantity_name = "Cell growth relative to control"
reported_result = 99.5

[[record]]
smiles_notation = "COC(=O)[C@@]12Oc3ccc(-c4ccc(O)c5c4O[C@]4(C(=O)OC)C(=C(O)C[C@H](C)[C@@H]4O)C5=O)c(O)c3C(=O)C1=C(O)C[C@H](C)[C@H]2O"
target_under_test = "BEAS-2B"
quantity_name = "Cell growth relative to control"
reported_result = 151.6

[[record]]
smiles_notation = "COC(=O)[C@@]1([C@H](O)[C@@H](C)CC(=O)O)CC(=O)c2c(ccc(-c3ccc(O)c4c3O[C@](C(=O)OC)([C@H](O)[C@@H](C)CC(=O)O)CC4=O)c2O)O1"
target_under_test = "BEAS-2B"
quantity_name = "Cell growth relative to control"
reported_result = 110

[[record]]
smiles_notation = "COC(=O)[C@@]12Oc3c(-c4ccc(O)c5c4O[C@]4(C(=O)O)C(=C(O)C[C@@H](C)[C@@H]4O)C5=O)ccc(O)c3C(=O)C1=C(O)C[C@H](C)[C@@H]2O"
target_under_test = "BEAS-2B"
quantity_name = "Cell growth relative to control"
reported_result = 155.5

